Test system: LOX IMVI melanoma
Test: NCI tumour cell line growth inhibition, 48 h
As shown below, each of these compounds has a reported TGI value.

- compound: "CCOc1cc(NC(C)=O)ccc1C(=O)NNC(=O)c1ccccc1OC(C)=O"
  reportedMetric: "TGI"
  readoutValue: "> 100 µM"

**Query** For the compound CSc1cc(N=Nc2nc3ccccc3s2)c2ccccc2c1O , give its reported TGI.
**Result** 12.7 µM

**Query** Specify TGI for CCOC(=O)c1csc(NC(=O)CCN(CC)CC)n1 and stop.
**Result** > 100 µM

**Query** Give the value of TGI reported for the following: COC(=O)CCCCN=Cc1c(O)c(O)c(C(C)C)c2cc(C)c(-c3c(C)cc4c(C(C)C)c(O)c(O)c(C=NCCCCC(=O)OC)c4c3O)c(O)c12
**Result** 2.43 µM

**Query** Assign TGI to the following record: Cc1ccc(-c2c3c([nH]c(=O)c2C#N)-c2cc(F)ccc2OC3)cc1
**Result** > 100 µM

**Query** # return recorded TGI for input O=C(c1ccco1)c1nc2ccc(C(F)(F)F)cc2[n+]([O-])c1C(F)(F)F
**Result** > 100 µM

**Query** Determine its reported TGI: C[C@]12CC[C@@H]3c4ccc(O)cc4CC[C@H]3[C@@H]1C/C(=C\c1ccncc1)C2=O
**Result** 58.9 µM

**Query** Annotate the compound CCOP(=O)(OCC)/C(C#N)=C/c1cnc(-c2ccccc2)[nH]1 with its measured TGI.
**Result** > 100 µM

**Query** Identify TGI associated with the compound CN(C(=O)C12C3C4C1C1C2C3C41C(=O)C(C)(C)C)C(C)(C)C (stereo not given)
**Result** > 100 µM

**Query** Write down TGI measured for item COc1cc2c3c(n(C)c(=O)c2cc1OC)-c1cc2c(cc1/C3=C\CCCN1C(=O)c3ccccc3C1=O)OCO2
**Result** > 40 µM

* * *

Tested on: OVCAR-5 ovarian
Assay: NCI tumour cell line growth inhibition, 48 h
*1 amine or outer side, *2 acyl side, *3 side chain or, on linkers, in order; H or OH if unused. Where a SMILES comes first, the peptide text is derived from it. Bridges are numbered along the chain shown (N, C = ends). [ ]: non-standard residue; d: D form. The star is where a group is joined. ξ: configuration not given here. X34 = O=C(C(CCCCNO[*:3])N[*:1])[*:2]; Fmoc = O=C(OCC1c2ccccc2-c2ccccc21)*; ξW = NC(Cc1c[nH]c2ccccc12)C(=O)O; ξP = O=C(O)C1CCCN1
# label = y if TGI >= 5 µM else n

Some solved entries appear below for comparison.
- compound: "NC(=O)CNC(=O)C1CCCN1C(=O)C1CCCCNOC(=O)CC[C@@H](NC(=O)OCC2c3ccccc3-c3ccccc32)C(=O)NC(Cc2c[nH]c3ccccc23)C(=O)N1 (stereo partly drawn) (Fmoc-[dE][ξW][X34][ξP]G-NH2; ester 1-3)"
  assignedLabel: "y"
- compound: "CC(C)c1ccc2[nH]c(O)c(-c3[nH]c4ccccc4c3N=O)c2c1"
  assignedLabel: "y"
- compound: "CNC(=O)OCc1c(COC(=O)NC)c(-c2ccc(Cl)c(Cl)c2)n2c1SCC2"
  assignedLabel: "y"
- compound: "COc1cc(/C=C/c2cc(/C=C/c3ccc(O)c(OC)c3)n(-c3ccccc3)n2)ccc1O"
  assignedLabel: "n"
- compound: "O=C1c2c(c3c4ccccc4n(CCCCCCBr)c3c3[nH]c4ccccc4c23)C(=O)N1O"
  assignedLabel: "y"

With those in mind, consider the next compound.
**Query** Confirm if TGI reported for the compound C[C@]12CC[C@H](O)CC1=CC[C@@H]1[C@@H]2CC[C@]2(C)C(c3cccnc3)=CC[C@@H]12 is 5 µM or above.
**Result** y

Where do the numbers come from? From PubChem BioAssay (NCI).
